Every entry's value here was drawn from paper PMC10215199.

Listing of entries alongside the reported IC50.
Biological target: recombinant human MAO-B (Homo sapiens)
Sequence (P27338 1-520): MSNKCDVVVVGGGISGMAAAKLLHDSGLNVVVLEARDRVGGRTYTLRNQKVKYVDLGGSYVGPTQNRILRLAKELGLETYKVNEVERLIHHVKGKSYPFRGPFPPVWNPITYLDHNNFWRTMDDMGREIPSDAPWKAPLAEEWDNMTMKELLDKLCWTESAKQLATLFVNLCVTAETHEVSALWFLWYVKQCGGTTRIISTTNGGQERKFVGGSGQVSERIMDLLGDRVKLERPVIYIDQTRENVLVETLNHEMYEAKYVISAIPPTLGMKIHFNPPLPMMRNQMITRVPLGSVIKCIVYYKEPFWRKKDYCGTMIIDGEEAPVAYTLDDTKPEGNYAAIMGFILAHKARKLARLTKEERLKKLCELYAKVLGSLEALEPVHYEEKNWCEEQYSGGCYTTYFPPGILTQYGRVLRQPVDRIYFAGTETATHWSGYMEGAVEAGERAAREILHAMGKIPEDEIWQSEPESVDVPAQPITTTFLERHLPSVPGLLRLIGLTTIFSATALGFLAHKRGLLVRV
Assay: biochemical
Conditions: ±sem; five doses
Field: numeric (µM). Do not append units.

Would you please look over these solved cases?
COc1ccc(/C=C2\Oc3cc(OCCCCN4CCCC4)ccc3C2=O)cc1; 8.65
COc1ccc(/C=C2\Oc3cc(OCCN4CCCCC4)ccc3C2=O)cc1OC; 10.2
COc1cc(/C=C2\Oc3cc(OCCN4CCCC4)ccc3C2=O)cc(OC)c1OC; 0.34
CCN(CC)CCOc1ccc2c(c1)O/C(=C\c1ccccc1OC)C2=O; 0.96

Reported IC50 for COc1ccc(OC)c(/C=C2\Oc3cc(OCCN4CCCC4)ccc3C2=O)c1 was 3.16

----------
Entries annotated with measured inhibition at 1 µM
Target: recombinant human MAO-A (Homo sapiens, UniProt P21397)
Assay: Monoamine oxidase-A inhibition assay (Amplex red fluorescence)
Format: biochemical
Conditions: single dose concentration of 1 µM; ±sem; NI = no measured inhibition; read-out: % Inhibition MAO-A

COc1ccc(/C=C2\Oc3cc(OCCN4CCCC4)ccc3C2=O)c(OC)c1OC; < 0%

Kindly review the next molecule as well.
Sure, the documented inhibition at 1 µM for COc1cc(/C=C2\Oc3cc(OCCN4CCCC4)ccc3C2=O)cc(OC)c1 is < 0%

----------
Each record here notes measured inhibition at 10 µM.
Target: recombinant human MAO-B (Homo sapiens)
Construct: purchased Sigma Aldrich
Sequence (P27338 1-520): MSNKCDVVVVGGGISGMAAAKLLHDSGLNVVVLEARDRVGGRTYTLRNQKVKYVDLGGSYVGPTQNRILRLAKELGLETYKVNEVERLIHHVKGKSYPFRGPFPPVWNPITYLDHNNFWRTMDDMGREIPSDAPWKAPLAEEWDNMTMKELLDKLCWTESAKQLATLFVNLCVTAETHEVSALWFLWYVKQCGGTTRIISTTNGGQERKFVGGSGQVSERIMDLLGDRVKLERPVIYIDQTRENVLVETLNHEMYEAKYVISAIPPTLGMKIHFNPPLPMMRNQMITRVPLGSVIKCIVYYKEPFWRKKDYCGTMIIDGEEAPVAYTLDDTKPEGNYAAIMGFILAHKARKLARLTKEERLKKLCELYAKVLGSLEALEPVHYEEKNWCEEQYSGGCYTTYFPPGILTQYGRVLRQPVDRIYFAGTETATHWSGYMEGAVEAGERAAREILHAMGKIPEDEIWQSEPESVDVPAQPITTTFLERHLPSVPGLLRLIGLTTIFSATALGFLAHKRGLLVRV
Test: biochemical
Details: single dose concentration of 10 µM; ±sem
Lab book: enter the figure in %, no units written.

COc1ccc(/C=C2\Oc3cc(OCCN4CCCC4)ccc3C2=O)c(OC)c1OC [Compound 3bb]; 23.9
COc1cc(/C=C2\Oc3cc(OCCN4CCCC4)ccc3C2=O)cc(OC)c1 [Compound 3at]; 36.8
COc1cc(/C=C2\Oc3cc(OCCCN4CCCC4)ccc3C2=O)cc(OC)c1 [Compound 3au]; 21.2

Entry CCN(CC)CCCOc1ccc2c(c1)O/C(=C\c1cccc(OC)c1)C2=O [Compound 3ae] — recorded inhibition at 10 µM = 18.8

----------
Target: recombinant human MAO-A (Homo sapiens)
Assay: Monoamine oxidase-A inhibition assay (Amplex red fluorescence)
Assay type: biochemical
Conditions: single dose concentration of 100 µM; ±sem; read-out: MAO-A % Inhibition
We begin with a simple list: items and their reported inhibition at 100 µM.

Some solved cases for reference:
CCN(CC)CCOc1ccc2c(c1)O/C(=C\c1ccccc1OC)C2=O; 27.2%
COc1ccc(/C=C2\Oc3cc(OCCN4CCCCC4)ccc3C2=O)cc1OC; ~23%

According to the records, this compound COc1ccc(/C=C2\Oc3cc(OCCCCN4CCCC4)ccc3C2=O)cc1 displays inhibition at 100 µM of ~15%

The compound COc1ccc(OC)c(/C=C2\Oc3cc(OCCN4CCCC4)ccc3C2=O)c1 showed inhibition at 100 µM equal to ~28%

----------
Molecular target: recombinant human MAO-B (Homo sapiens, UniProt P27338)
Construct: purchased Sigma Aldrich
Assay: biochemical
Details: single dose concentration of 10 µM; ±sem
Criterion: inhibition at 10 µM meeting or surpassing 20%. Met: yes. Not met: no.

Look over these answered cases.
COc1ccccc1/C=C1\Oc2cc(OCCCN3CCCC3)ccc2C1=O [Compound 3ac]; yes
COc1ccc(/C=C2\Oc3cc(OCCN4CCCCC4)ccc3C2=O)cc1 [Compound 3am]; yes
COc1ccc(/C=C2\Oc3cc(OCCCN4CCCCC4)ccc3C2=O)cc1OC [Compound 3aq]; no
COc1ccc(/C=C2\Oc3cc(OCCN4CCCCC4)ccc3C2=O)cc1OC [Compound 3ap]; yes
CCN(CC)CCOc1ccc2c(c1)O/C(=C\c1ccccc1OC)C2=O [Compound 3aa]; yes
COc1ccc(/C=C2\Oc3cc(OCCCN4CCCC4)ccc3C2=O)c(OC)c1 [Compound 3az]; yes

Test whether the compound COc1cccc(/C=C2\Oc3cc(OCCN4CCCC4)ccc3C2=O)c1OC [Compound 3av] records inhibition at 10 µM of 20% or higher.
no

Tell me whether inhibition at 10 µM is at least 20% here: COc1cccc(/C=C2\Oc3cc(OCCCN4CCCC4)ccc3C2=O)c1 [Compound 3ag]
no

----------
Biological target: recombinant human MAO-A (Homo sapiens, UniProt P21397)
Test: Monoamine oxidase-A inhibition assay (Amplex red fluorescence)
Type: biochemical
Settings: single dose concentration of 1 µM; ±sem; NI = no measured inhibition; read-out: % Inhibition MAO-A
experimental-readout: inhibition at 1 µM (%)
Answer in %, number only, no unit symbol.

Here are 2 compounds together with their reported answers.
COc1cccc(/C=C2\Oc3cc(OCCN4CCOCC4)ccc3C2=O)c1; 4.1
COc1cccc(/C=C2\Oc3cc(OCCN4CCCC4)ccc3C2=O)c1OC; 12.6

Then this compound:
Value of measured inhibition at 1 µM for the entry COc1ccccc1/C=C1\Oc2cc(OCCCN3CCCC3)ccc2C1=O : 1.31

----------
Molecular target: recombinant human MAO-A (Homo sapiens)
Sequence (P21397 1-527): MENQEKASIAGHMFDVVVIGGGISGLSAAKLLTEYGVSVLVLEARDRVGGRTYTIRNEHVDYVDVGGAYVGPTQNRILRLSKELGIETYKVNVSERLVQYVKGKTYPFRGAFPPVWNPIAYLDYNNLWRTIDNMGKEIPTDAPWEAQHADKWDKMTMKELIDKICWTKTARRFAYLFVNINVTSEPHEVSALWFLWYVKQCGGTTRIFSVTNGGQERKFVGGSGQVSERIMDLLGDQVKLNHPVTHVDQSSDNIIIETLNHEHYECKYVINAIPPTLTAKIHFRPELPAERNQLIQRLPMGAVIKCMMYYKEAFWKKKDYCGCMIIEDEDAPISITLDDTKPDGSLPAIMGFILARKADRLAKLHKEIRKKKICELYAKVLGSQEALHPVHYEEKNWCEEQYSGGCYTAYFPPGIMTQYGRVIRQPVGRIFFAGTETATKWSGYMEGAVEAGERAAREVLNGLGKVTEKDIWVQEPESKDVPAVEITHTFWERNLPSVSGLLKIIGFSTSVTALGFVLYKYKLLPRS
Assay: Monoamine oxidase-A inhibition assay (Amplex red fluorescence)
Assay type: biochemical
Details: single dose concentration of 1 µM; ±sem; NI = no measured inhibition; read-out: % Inhibition MAO-A
experimental-readout: inhibition at 1 µM

Briefly, inhibition at 1 µM measured for COc1cc(/C=C2\Oc3cc(OCCCN4CCCC4)ccc3C2=O)cc(OC)c1 [Compound 3au] : < 0%

Summary for this molecule, COc1ccc(/C=C2\Oc3cc(OCCN4CCCC4)ccc3C2=O)cc1 [Compound 3aj] : inhibition at 1 µM is 3.26%

The measured inhibition at 1 µM associated with CCN(CC)CCCOc1ccc2c(c1)O/C(=C\c1cccc(OC)c1)C2=O [Compound 3ae] reads < 0%
